System: NMDA stimulated [3H]-GABA release from cultured mouse cerebral cortex interneurons
Assay: Inhibition of NMDA stimulated [3H]-GABA release from cultured mouse cerebral cortex interneurons (Test 3)
Assay type: cell-based
Conditions: inhibits 50% of NMDA induced [3H]-GABA release, 3 μg/ml NMDA, 37° C.
parameter: log10(IC50) (log10 of the value in nM)
// do not treat as linear: log10 of IC50, unit nM

// known answers, use as guide
compound	log10(IC50)
O=c1[nH]c2sc3ccccc3c2[nH]c1=O	1.93
O=c1[nH]c2sc3c(Cl)cc(Cl)cc3c2[nH]c1=O	1.83
O=C(O)c1cc(O)c2ccc(Cl)cc2n1 [Example 7-Cl-Kyn, 7-chlorokynurenic acid, reference compound]	3.11

Exercise: Requested read-out: log10(IC50). Entry: O=c1[nH]c2sc3ccc(F)cc3c2[nH]c1=O
Solution: 1.59

Exercise: Requested read-out: log10(IC50). Entry: NC1CCN(O)C1=O (stereo not shown) [HA-966, 3-amino-1-hydroxy-2-pyrrolidone, reference compound]
Solution: 4.40

Exercise: Requested read-out: log10(IC50). Entry: O=c1[nH]c2sc3ccc(Cl)cc3c2[nH]c1=O
Solution: 1.04

Exercise: Requested read-out: log10(IC50). Entry: O=c1[nH]c2sc3ccc(I)cc3c2[nH]c1=O
Solution: 2.05
